As shown below, each of these compounds has a reported inhibition value.
system: Ubiquitin carboxyl-terminal hydrolase 28 (Homo sapiens)
experimental.details: inhibitors of human USP28 deubiquitinase (AID 1645857)
measurement.setup: purified USP28, Ub-rhodamine cleavage fluorescence, 30 min; at 25 µM; active compounds read high
Screen size: about 47,000 compounds; about 1,400 (3%) were called active. The entries come from a sample that favours actives as a whole.
The answer is to be given in %; state only the numeric part.

Worked set:
compound | metric.name | recorded.value
COc1cccc(C(=O)N2CCCC2c2nc(-c3ccccc3)no2)c1 (centres undefined) | inhibition | 1.43
CN(C)c1cccc(NC(=O)N2CC[C@@H]3[C@H]2C(=O)N(C)[C@@H](Cc2ccccc2)C(=O)N3C)c1 | inhibition | -0.0135
COc1cc(N2CC[C@@H]3[C@@H](CO[C@H]3CNC(=O)C3CC3)C2)ncn1 | inhibition | 5.25
CCCCCCCCCCC(C)C1CC(=O)NC(C(C)O)C(=O)NC(C)C(=O)NC(C)C(=O)NC(CCC(N)=O)C(=O)NC(Cc2ccc(O)cc2)C(=O)NC(C(C)CC)C(=O)O1 (centres undefined) | inhibition | -4.03

Now consider the entry below.
-- ask Look at this compound and give its reported inhibition. `O=C(CSc1nnc(-c2ccc3c(c2)OCO3)n1-c1ccccc1)OCC(=O)c1ccccc1`
-- reply 14.9

---

system: Ubiquitin carboxyl-terminal hydrolase 28 (Homo sapiens)
experimental.details: inhibitors of human USP28 deubiquitinase (AID 1645857)
measurement.setup: purified USP28, Ub-rhodamine cleavage fluorescence, 30 min; at 25 µM; active compounds read high
In all, about 47,000 compounds went through this assay and about 1,400 (3%) were called active. The entries come from a sample that favours actives as a whole.
Listed here are compounds together with their documented inhibition.
Number only, in %; omit the unit.

Some solved cases for reference:
compound | inhibition / %
COc1ccc(CCNC(=O)c2ccc3ccccc3c2)cc1OC | 54.7
COc1ccccc1C(=O)Nc1cccc(Oc2ccccc2)c1 | 19.6
Cc1cccc(OCc2nnc(C3(c4ccc(F)cc4)CCOCC3)o2)c1 | 13.2
Cc1nc(C2CCCN(C(=O)c3cccnc3N)C2)nc2c1CC(=O)N2Cc1ccccc1 (stereo unspecified) | -6.04

-- ask Field request: inhibition | item: `COc1ccc(CCNC(=O)c2ccccc2OCc2ccc(F)cc2)cc1`
-- reply 10.8

-- ask If you can, please state the reported inhibition value of `CC(=O)N1CCc2cc(S(=O)(=O)NCC(=O)NCc3ccc4c(c3)OCO4)ccc21` .
-- reply -1.7

-- ask Please look up its inhibition: `O=C(CN1CCC2(CC=CCN(CCc3ccccc3)C2=O)CC1)Nc1ccc(F)cc1`
-- reply -25.4

---

# inhibition listing for each entry below
system: Ubiquitin carboxyl-terminal hydrolase 28 (Homo sapiens) (UniProt Q96RU2)
Sequence (Q96RU2 whole entry, looked up): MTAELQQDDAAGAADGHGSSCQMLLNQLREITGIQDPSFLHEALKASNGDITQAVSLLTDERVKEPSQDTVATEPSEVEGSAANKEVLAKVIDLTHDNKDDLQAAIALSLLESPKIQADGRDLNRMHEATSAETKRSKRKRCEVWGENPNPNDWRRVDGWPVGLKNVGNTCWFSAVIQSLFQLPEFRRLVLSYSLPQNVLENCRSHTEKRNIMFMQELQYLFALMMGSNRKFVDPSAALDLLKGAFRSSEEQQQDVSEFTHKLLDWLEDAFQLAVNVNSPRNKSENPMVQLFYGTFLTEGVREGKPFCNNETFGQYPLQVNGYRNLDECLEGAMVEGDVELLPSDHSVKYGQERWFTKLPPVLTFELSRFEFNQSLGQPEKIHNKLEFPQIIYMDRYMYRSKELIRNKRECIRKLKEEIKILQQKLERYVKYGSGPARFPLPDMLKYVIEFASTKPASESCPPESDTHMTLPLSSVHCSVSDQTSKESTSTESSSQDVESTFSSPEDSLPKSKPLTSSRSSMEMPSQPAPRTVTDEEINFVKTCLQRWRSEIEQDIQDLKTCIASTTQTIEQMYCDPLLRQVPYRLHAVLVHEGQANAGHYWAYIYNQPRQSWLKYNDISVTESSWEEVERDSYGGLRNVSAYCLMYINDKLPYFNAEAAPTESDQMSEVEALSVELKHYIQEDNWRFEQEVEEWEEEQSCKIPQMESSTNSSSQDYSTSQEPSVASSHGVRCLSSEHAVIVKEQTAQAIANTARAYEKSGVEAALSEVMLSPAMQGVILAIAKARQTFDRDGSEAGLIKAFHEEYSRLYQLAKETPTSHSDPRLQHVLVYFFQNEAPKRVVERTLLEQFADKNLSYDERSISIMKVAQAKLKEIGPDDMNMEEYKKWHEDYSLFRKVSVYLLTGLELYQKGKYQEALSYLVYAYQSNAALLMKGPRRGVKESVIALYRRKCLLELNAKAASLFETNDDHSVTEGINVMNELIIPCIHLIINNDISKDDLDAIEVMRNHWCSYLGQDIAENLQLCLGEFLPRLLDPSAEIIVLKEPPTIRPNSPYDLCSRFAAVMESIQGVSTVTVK
experimental.details: inhibitors of human USP28 deubiquitinase (AID 1645857)
measurement.setup: purified USP28, Ub-rhodamine cleavage fluorescence, 30 min; at 25 µM; active compounds read high
About 1,400 (3%) of roughly 47,000 compounds were called active. This is one part of a sample in which actives are shown more often than they occur.
Please give a number only; it is taken to be in %.

compound | endpoint.unit | inhibition
Cc1cc(C)c(-c2nnc(NC(=O)c3ccc(-c4ccccc4)cc3)s2)c(C)c1 | % | -5.98
CC(C)NC(=O)c1csc(-c2ccc(N3CCCC3)nc2)n1 | % | -10
CN1C(=O)[C@H](Cc2ccccc2)N(C)C(=O)[C@@H]2[C@H]1CCN2C(=O)Nc1cccc(C#N)c1 | % | -9.42
CCOC(=O)c1cnn(-c2ccc(C(=O)Nc3ccc(C(C)=O)cc3)cn2)c1N | % | -5.3
Cn1c(N2CCN(C(=O)c3cccc(Cl)c3)CC2)cc(=O)n(C)c1=O | % | -5.96
Cc1nc(-c2cccc(S(=O)(=O)NCc3ccc(Cl)cc3)c2)no1 | % | 15.5
O=C(c1ccc[nH]1)N1CCCn2c(nc(Cn3ccnc3)cc2=O)C1 | % | 12.3
CC(=O)C(CC(=O)N1CCCC1)C(=O)Nc1ccc(Cl)cc1 (stereo not given) | % | 8.14

-- ask What value of inhibition has been recorded for this entry: `CC(C)NC(=O)c1nc(Cn2c(C(F)F)nc3ccccc32)no1`
-- reply 5.94

-- ask Value lookup for inhibition; key = `O=C1C(O)=C(c2ccc(O)c(O)c2)C(=O)C(O)=C1c1ccccc1`
-- reply 66.9

---

Catalogue of inhibition readings, one per entry.
system: Ubiquitin carboxyl-terminal hydrolase 28 (Homo sapiens) (UniProt Q96RU2)
experimental.details: inhibitors of human USP28 deubiquitinase (AID 1645857)
measurement.setup: purified USP28, Ub-rhodamine cleavage fluorescence, 30 min; at 25 µM; active compounds read high
About 1,400 (3%) of roughly 47,000 compounds were called active. The list comes from a sample in which actives are over-represented; it also holds close analogues and randomly drawn compounds.
Please respond with the number in % and leave the unit unwritten.

Field: example entries. Status: answers known.
compound | system | inhibition [%]
C=C1CCC2[C@](C)(CCC[C@]2(C)C(=O)OC)[C@H]1CCc1ccoc1/C=C/C(=O)O (stereo not given in full) | Ubiquitin carboxyl-terminal hydrolase 28 (Homo sapiens) (UniProt Q96RU2) | 48
Cc1cc(C)c(NC(=O)CCN2C(=O)c3cccnc3Sc3ccccc32)c(C)c1 | Ubiquitin carboxyl-terminal hydrolase 28 (Homo sapiens) (UniProt Q96RU2) | 32.4
O=C(CCN1C(=O)c2cccnc2Sc2ccccc21)Nc1cc(F)ccc1F | Ubiquitin carboxyl-terminal hydrolase 28 (Homo sapiens) (UniProt Q96RU2) | 11
CC(C)c1cc(N2CCN(CCc3ccccc3)CC2)n2c(nc3ccccc32)c1C#N | Ubiquitin carboxyl-terminal hydrolase 28 (Homo sapiens) (UniProt Q96RU2) | -23.5
CCN(CC)c1ccc(NC(=O)Nc2ccc(OCc3ccccc3)cc2)cc1 | Ubiquitin carboxyl-terminal hydrolase 28 (Homo sapiens) (UniProt Q96RU2) | -7.22
COc1ccc(NC(=O)c2sc(N3CCOCC3)nc2-c2ccccc2)c(OC)c1 | Ubiquitin carboxyl-terminal hydrolase 28 (Homo sapiens) (UniProt Q96RU2) | 15.1
COc1ccc(OC)c(-n2c(CNC(=O)c3ccco3)nnc2SCC(=O)N2CCc3ccccc32)c1 | Ubiquitin carboxyl-terminal hydrolase 28 (Homo sapiens) (UniProt Q96RU2) | 0.00951
Cc1cc(C)n2nc(C(=O)N(C)C(c3ccccc3)c3ccccc3)nc2n1 | Ubiquitin carboxyl-terminal hydrolase 28 (Homo sapiens) (UniProt Q96RU2) | 5.86
CCOc1ccc(NC(=S)Nc2ccc(Cc3ccncc3)cc2)cc1 | Ubiquitin carboxyl-terminal hydrolase 28 (Homo sapiens) (UniProt Q96RU2) | 36.8

Now let's try a different one.
-- ask For `O=C(c1cccnc1)N1CCN(c2cc(-c3ccccc3)[nH]n2)CC1` , what is its reported inhibition?
-- reply 4.54

---

system: Ubiquitin carboxyl-terminal hydrolase 28 (Homo sapiens)
experimental.details: inhibitors of human USP28 deubiquitinase (AID 1645857)
measurement.setup: purified USP28, Ub-rhodamine cleavage fluorescence, 30 min; at 25 µM
In all, about 47,000 compounds went through this assay and about 1,400 (3%) were called active. No stated cut-off is given here; in the data, active means inhibition above about 30%; inactive means the rest. Many of the other results were omitted from the sample, so actives are more common in it than they were.
A correct response names exactly one class from active, inactive

Check out these entries, answers already filled in.
molecule | class.label
Nn1c(SCC(=O)Nc2ccccc2F)nnc1-c1n[nH]c2c1CCC2 | inactive
c1ccc(-c2ccc(NCc3ccc4c(c3)OCO4)nn2)cc1 | active
O=C(NCc1ccc2c(c1)OCO2)c1cncc(NS(=O)(=O)c2ccc3c(c2)OCCO3)c1 | inactive
COc1cc(-c2nc3sc4c(c3c(=O)[nH]2)CCC(C)C4)ccc1OCc1ccc(C)cc1 (centres undefined) | inactive
CNc1cccc(C2CN(C(=O)c3cnn4cccnc34)CCO2)n1 (centres undefined) | inactive

-- ask Can you look up the reported call for CC1CCc2c(sc3nc(CC#N)[nH]c(=O)c23)C1 (centres undefined) for me?
-- reply inactive

-- ask // param item: `O=C1COC2(CCN(c3ncccn3)CC2)CN1Cc1cccc(F)c1` ; yields the recorded call
-- reply inactive

---

system: Ubiquitin carboxyl-terminal hydrolase 28 (Homo sapiens) (UniProt Q96RU2)
experimental.details: inhibitors of human USP28 deubiquitinase (AID 1645857)
measurement.setup: purified USP28, Ub-rhodamine cleavage fluorescence, 30 min; at 25 µM; active compounds read high
Hit rate of the full screen: of about 47,000 compounds, about 1,400 (3%) were called active. The sample as a whole holds a higher share of actives than the screen did.
inhibition overview
Numbers only here, please. The scale is %.

Would you please look over these solved cases?
compound | inhibition / %
O=C(N[C@H]1C[C@@H]2C[C@H]1N(C(=O)c1ccc3c(c1)OCO3)C2)c1ccccc1 | -126
O=C(Nc1cccc(S(=O)(=O)N2CCCCCC2)c1)c1ccc(N2CCOCC2)c([N+](=O)[O-])c1 | 35.6
CN1CCN(S(=O)(=O)c2cccc(C(=O)Nc3cccc(S(N)(=O)=O)c3)c2)CC1 | 0.55
COc1cccc(C2c3[nH]c4ccccc4c3C[C@@H]3C(=O)N(CCCn4ccnc4)CC(=O)N23)c1 (some centres undefined) | -0.857
Cc1cccc(NC(=O)c2ccc(N3CCC(C)CC3)c([N+](=O)[O-])c2)c1C | -2.68
COc1ccc(C(C)=O)cc1CSc1nnc(-c2ccccc2OC)n1CCc1ccccc1 | 5.07
CC(C)NC(=O)CN1C(=O)CC(C)Sc2ccc(S(=O)(=O)N3CCCCC3)cc21 (centres undefined) | 13.7
COC(=O)c1cccnc1-n1c(=O)c2cccnc2n(CC(=O)Nc2ccc(C)c(F)c2)c1=O | -12.4

Lab note: next compound to report on.
-- ask Quick check: inhibition of CC1CCC/C=C/C=C/C(=O)CC(O)C/C=C\C=C\C(O)C/C=C/C=C\C(=O)O1 (centres undefined) ?
-- reply 2.22
